Assay: activity coefficient (dimensionless); of the first substance listed, at infinite dilution; xn = mol fraction of the nth substance listed
Details: 328.15 K; 101 kPa; Liquid; Chromatography; x1 = 0
Readout: activity coefficient
Give the value as a plain number.

activity coefficient reading for C1CCCC1 [cyclopentane] + COCC[N+]1(C)CCCC1.O=S(=O)([N-]S(=O)(=O)C(F)(F)F)C(F)(F)F : 7.19

activity coefficient reading for CCC(=O)OC [methyl propanoate] + COCC[N+]1(C)CCCC1.O=S(=O)([N-]S(=O)(=O)C(F)(F)F)C(F)(F)F : 0.94

activity coefficient reading for c1ccccc1 [benzene] + COCC[N+]1(C)CCCC1.O=S(=O)([N-]S(=O)(=O)C(F)(F)F)C(F)(F)F : 1.04

----------
Assay: activity coefficient (dimensionless); of the first substance listed, at infinite dilution; xn = mol fraction of the nth substance listed
Conditions: 338.15 K; 101 kPa; Liquid; Chromatography; x1 = 0
The entries below are paired with their reported activity coefficient.
Give the value as a plain number.

Consider the reported activity coefficient for these compounds:
CCCCCCC [heptane] + COCC[N+]1(C)CCCC1.O=S(=O)([N-]S(=O)(=O)C(F)(F)F)C(F)(F)F :: 24.2
CCCC(C)=O [pentan-2-one] + COCC[N+]1(C)CCCC1.O=S(=O)([N-]S(=O)(=O)C(F)(F)F)C(F)(F)F :: 0.86
Cc1ccccc1C [1,2-dimethylbenzene] + COCC[N+]1(C)CCCC1.O=S(=O)([N-]S(=O)(=O)C(F)(F)F)C(F)(F)F :: 1.97
c1ccccc1 [benzene] + COCC[N+]1(C)CCCC1.O=S(=O)([N-]S(=O)(=O)C(F)(F)F)C(F)(F)F :: 1.06
CCCC(=O)OC [methyl butanoate] + COCC[N+]1(C)CCCC1.O=S(=O)([N-]S(=O)(=O)C(F)(F)F)C(F)(F)F :: 1.33
C=C(C)c1ccccc1 [(1-methylethenyl)benzene] + COCC[N+]1(C)CCCC1.O=S(=O)([N-]S(=O)(=O)C(F)(F)F)C(F)(F)F :: 1.98
Cc1cccc(C)c1 [1,3-dimethylbenzene] + COCC[N+]1(C)CCCC1.O=S(=O)([N-]S(=O)(=O)C(F)(F)F)C(F)(F)F :: 2.17
C1=CCCCC1 [cyclohexene] + COCC[N+]1(C)CCCC1.O=S(=O)([N-]S(=O)(=O)C(F)(F)F)C(F)(F)F :: 5.63
CCCCC [pentane] + COCC[N+]1(C)CCCC1.O=S(=O)([N-]S(=O)(=O)C(F)(F)F)C(F)(F)F :: 12.1

activity coefficient reading for CCC(=O)OC [methyl propanoate] + COCC[N+]1(C)CCCC1.O=S(=O)([N-]S(=O)(=O)C(F)(F)F)C(F)(F)F : 0.96

----------
Assay: activity coefficient (dimensionless); of the first substance listed, at infinite dilution; xn = mol fraction of the nth substance listed
Conditions: 348.15 K; 101 kPa; Liquid; Chromatography; x1 = 0
Readout: activity coefficient

CC(C)(C)O [2-methylpropan-2-ol] + COCC[N+]1(C)CCCC1.O=S(=O)([N-]S(=O)(=O)C(F)(F)F)C(F)(F)F :: 1.56
CO [methanol] + COCC[N+]1(C)CCCC1.O=S(=O)([N-]S(=O)(=O)C(F)(F)F)C(F)(F)F :: 1.1
CCCCC [pentane] + COCC[N+]1(C)CCCC1.O=S(=O)([N-]S(=O)(=O)C(F)(F)F)C(F)(F)F :: 11.5

activity coefficient reading for CCC(C)CC [3-methylpentane] + COCC[N+]1(C)CCCC1.O=S(=O)([N-]S(=O)(=O)C(F)(F)F)C(F)(F)F : 14.1

activity coefficient reading for C=CCCCC [hex-1-ene] + COCC[N+]1(C)CCCC1.O=S(=O)([N-]S(=O)(=O)C(F)(F)F)C(F)(F)F : 8.61

activity coefficient reading for CC(C)O [propan-2-ol] + COCC[N+]1(C)CCCC1.O=S(=O)([N-]S(=O)(=O)C(F)(F)F)C(F)(F)F : 1.54

activity coefficient reading for CCCCCC [hexane] + COCC[N+]1(C)CCCC1.O=S(=O)([N-]S(=O)(=O)C(F)(F)F)C(F)(F)F : 15.9

activity coefficient reading for C#CCCCC [1-hexyne] + COCC[N+]1(C)CCCC1.O=S(=O)([N-]S(=O)(=O)C(F)(F)F)C(F)(F)F : 3.28

activity coefficient reading for CCC(C)(C)C [2,2-dimethylbutane] + COCC[N+]1(C)CCCC1.O=S(=O)([N-]S(=O)(=O)C(F)(F)F)C(F)(F)F : 13.1

activity coefficient reading for CC(C)OC(C)C [diisopropyl ether] + COCC[N+]1(C)CCCC1.O=S(=O)([N-]S(=O)(=O)C(F)(F)F)C(F)(F)F : 6.39

activity coefficient reading for C=CCCC [1-pentene] + COCC[N+]1(C)CCCC1.O=S(=O)([N-]S(=O)(=O)C(F)(F)F)C(F)(F)F : 6.17

activity coefficient reading for CCCC(=O)OC [methyl butanoate] + COCC[N+]1(C)CCCC1.O=S(=O)([N-]S(=O)(=O)C(F)(F)F)C(F)(F)F : 1.35

activity coefficient reading for CCCCCCCC [octane] + COCC[N+]1(C)CCCC1.O=S(=O)([N-]S(=O)(=O)C(F)(F)F)C(F)(F)F : 31.4

activity coefficient reading for C=CCCCCC [1-heptene] + COCC[N+]1(C)CCCC1.O=S(=O)([N-]S(=O)(=O)C(F)(F)F)C(F)(F)F : 12.3

activity coefficient reading for C1CCCCCCC1 [cyclooctane] + COCC[N+]1(C)CCCC1.O=S(=O)([N-]S(=O)(=O)C(F)(F)F)C(F)(F)F : 16.2
